# SYSTEM: HIV Env of isolate 6244_13_B5_4576 (clade B) (HIV)
# ASSAY METHOD TEXT: cell-based or functional assay
REPORTED PROPERTY: IC50 (µg/ml) with constrains

Some binders with recorded IC50 (µg/ml) with constrains:
- BINDER: "ePGDM13 (antibody, V domains shown) VH: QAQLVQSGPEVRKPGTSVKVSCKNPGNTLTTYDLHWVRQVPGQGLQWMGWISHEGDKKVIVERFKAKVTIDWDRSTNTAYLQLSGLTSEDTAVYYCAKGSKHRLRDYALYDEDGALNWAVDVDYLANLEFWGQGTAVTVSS VL: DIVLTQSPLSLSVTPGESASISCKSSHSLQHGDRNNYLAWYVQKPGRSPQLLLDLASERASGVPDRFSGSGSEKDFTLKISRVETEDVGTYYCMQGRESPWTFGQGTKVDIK"
  VALUE: "30.8 µg/mL"
- BINDER: "ePGDM5 (antibody, V domains shown) VH: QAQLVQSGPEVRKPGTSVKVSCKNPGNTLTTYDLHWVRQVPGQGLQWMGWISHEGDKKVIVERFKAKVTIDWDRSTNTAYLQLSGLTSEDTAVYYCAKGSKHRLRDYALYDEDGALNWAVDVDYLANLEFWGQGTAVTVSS VL: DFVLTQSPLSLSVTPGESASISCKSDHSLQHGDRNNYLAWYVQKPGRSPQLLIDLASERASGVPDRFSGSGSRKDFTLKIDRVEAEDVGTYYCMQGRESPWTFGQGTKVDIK"
  VALUE: "18.9 µg/mL"
- BINDER: "ePGDM9 (antibody, V domains shown) VH: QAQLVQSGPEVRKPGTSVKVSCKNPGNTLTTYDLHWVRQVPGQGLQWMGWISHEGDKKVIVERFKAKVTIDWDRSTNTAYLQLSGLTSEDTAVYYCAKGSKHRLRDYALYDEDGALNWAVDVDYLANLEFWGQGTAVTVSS VL: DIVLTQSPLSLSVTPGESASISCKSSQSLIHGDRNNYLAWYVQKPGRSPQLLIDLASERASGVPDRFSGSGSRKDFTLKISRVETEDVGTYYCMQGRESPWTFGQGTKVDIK"
  VALUE: "12.6 µg/mL"

The record that follows has no IC50 (µg/ml) with constrains shown yet.
### Prompt Entry PGDM1400 (antibody, V domains shown) VH: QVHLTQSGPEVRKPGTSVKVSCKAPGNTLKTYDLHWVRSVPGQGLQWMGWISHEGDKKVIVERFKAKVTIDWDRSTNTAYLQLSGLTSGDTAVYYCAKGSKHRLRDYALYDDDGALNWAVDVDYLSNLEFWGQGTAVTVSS VL: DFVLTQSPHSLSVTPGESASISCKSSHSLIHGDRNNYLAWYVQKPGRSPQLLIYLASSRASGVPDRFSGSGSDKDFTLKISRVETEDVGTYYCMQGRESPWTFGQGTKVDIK has what IC50 (µg/ml) with constrains?
### Response > 100 µg/mL

Hello, the source for this data is patent US20230134571A1, in case you need it.
